Value source: ChEMBL document CHEMBL3352795

Property: IC50; scope: individual compounds
Tested on: HeLa
Assay: Anticancer activity against human HeLa cells assessed as growth inhibition after 48 hrs by MTT assay
Format: functional, cell-based
readout: IC50 (mg/L)

- CC(C)(C(=O)NCc1ccccc1)C1C(=O)Nc2cccc(C(=O)Nc3cccc(Cl)c3)c2NC1=O (stereo unspecified): 24
- Cc1ccc(CNC(=O)c2cccc3c2NC(=O)C(C(C)(C)C(=O)NCc2ccccc2)C(=O)N3)cc1Cl (stereo unspecified): 16.7
- CC(C)(C(=O)NCc1ccccc1)C1C(=O)Nc2cccc(C(=O)Nc3cccc(C(F)(F)F)c3)c2NC1=O (stereo unspecified): 42
- CC(C)(C(=O)NCc1ccccc1)C1C(=O)Nc2cccc(C(=O)Nc3ccccc3)c2NC1=O (stereo unspecified): 41.9
- CC(C)(C(=O)NCc1ccccc1)C1C(=O)Nc2cccc(C(=O)Nc3cc(Cl)ccc3F)c2NC1=O (stereo unspecified): 35.4
- CC(C)(C(=O)NCc1ccccc1)C1C(=O)Nc2cccc(C(=O)NCc3cc(F)ccc3F)c2NC1=O (stereo unspecified): 25.1
- CC(C)(C(=O)NCc1ccccc1)C1C(=O)Nc2cccc(C(=O)NCc3cccc(C(F)(F)F)c3)c2NC1=O (stereo unspecified): 8.1
- CC(C)(C(=O)NCc1ccccc1)C1C(=O)Nc2cccc(C(=O)Nc3cccc(F)c3F)c2NC1=O (stereo unspecified): 37.8
- CC(C)(C(=O)NCc1ccccc1)C1C(=O)Nc2cccc(C(=O)NCc3ccc(F)c(Cl)c3)c2NC1=O (stereo unspecified): 21.1
- O=c1[nH]cc(F)c(=O)[nH]1: 5.7
- CC(C)(C(=O)NCc1ccccc1)C1C(=O)Nc2cccc(C(=O)NCc3ccccc3)c2NC1=O (stereo unspecified): 42
